Reported Km values for a set of proteins
substrate: O=C1CCC/C1=C\c1ccccc1; experiment: purified protein; format: biochemical, Bacillus subtilis; conditions: 1.0 mM NADPH, 10 μM enzyme, PBS 100 mM, pH 7.5, 30 °C
Value expressed in mM; do not type the unit.

PROTEIN	UNITS	ASSAY VALUE
YqjM (Bacillus subtilis subsp. subtilis str. 168; C26G/I69Y) (protein, ene-reductase, FMN enzyme) ARKLFTPITIKDMTLKNRIVMSPMGMYSSHEKDGKLTPFHMAHYISRAIGQVGLIIVEASAVNPQGRYTDQDLGIWSDEHIEGFAKLTEQVKEQGSKIGIQLAHAGRKAELEGDIFAPSAIAFDEQSATPVEMSAEKVKETVQEFKQAAARAKEAGFDVIEIHAAHGYLIHEFLSPLSNHRTDEYGGSPENRYRFLREIIDEVKQVWDGPLFVRVSASDYTDKGLDIADHIGFAKWMKEQGVDLIDCSSGALVHADINVFPGYQVSFAEKIREQADMATGAVGMITDGSMAEEILQNGRADLIFIGRELLRDPFFARTAAKQLNTEIPAPVQYERGW	mM	1.21

Task: Look at this protein and give its reported Km. YqjM (Bacillus subtilis subsp. subtilis str. 168; C26A/I69Y) (protein, ene-reductase, FMN enzyme) ARKLFTPITIKDMTLKNRIVMSPMAMYSSHEKDGKLTPFHMAHYISRAIGQVGLIIVEASAVNPQGRYTDQDLGIWSDEHIEGFAKLTEQVKEQGSKIGIQLAHAGRKAELEGDIFAPSAIAFDEQSATPVEMSAEKVKETVQEFKQAAARAKEAGFDVIEIHAAHGYLIHEFLSPLSNHRTDEYGGSPENRYRFLREIIDEVKQVWDGPLFVRVSASDYTDKGLDIADHIGFAKWMKEQGVDLIDCSSGALVHADINVFPGYQVSFAEKIREQADMATGAVGMITDGSMAEEILQNGRADLIFIGRELLRDPFFARTAAKQLNTEIPAPVQYERGW
Result: 2.65

Task: Could you do the same for YqjM (Bacillus subtilis subsp. subtilis str. 168; I69G) (protein, ene-reductase, FMN enzyme) ARKLFTPITIKDMTLKNRIVMSPMCMYSSHEKDGKLTPFHMAHYISRAIGQVGLIIVEASAVNPQGRGTDQDLGIWSDEHIEGFAKLTEQVKEQGSKIGIQLAHAGRKAELEGDIFAPSAIAFDEQSATPVEMSAEKVKETVQEFKQAAARAKEAGFDVIEIHAAHGYLIHEFLSPLSNHRTDEYGGSPENRYRFLREIIDEVKQVWDGPLFVRVSASDYTDKGLDIADHIGFAKWMKEQGVDLIDCSSGALVHADINVFPGYQVSFAEKIREQADMATGAVGMITDGSMAEEILQNGRADLIFIGRELLRDPFFARTAAKQLNTEIPAPVQYERGW , please?
Result: 3.56

Task: Could you do the same for YqjM (Bacillus subtilis subsp. subtilis str. 168; I69Y) (protein, ene-reductase, FMN enzyme) ARKLFTPITIKDMTLKNRIVMSPMCMYSSHEKDGKLTPFHMAHYISRAIGQVGLIIVEASAVNPQGRYTDQDLGIWSDEHIEGFAKLTEQVKEQGSKIGIQLAHAGRKAELEGDIFAPSAIAFDEQSATPVEMSAEKVKETVQEFKQAAARAKEAGFDVIEIHAAHGYLIHEFLSPLSNHRTDEYGGSPENRYRFLREIIDEVKQVWDGPLFVRVSASDYTDKGLDIADHIGFAKWMKEQGVDLIDCSSGALVHADINVFPGYQVSFAEKIREQADMATGAVGMITDGSMAEEILQNGRADLIFIGRELLRDPFFARTAAKQLNTEIPAPVQYERGW , please?
Result: 4.25
